For each entry below, report its Ki value.
- targetSystem: BteCAι
- assayText: stopped-flow CO2 hydration assay
- setupConditions: CO2 substrate; 20 °C, pH 7.5, 10 mM HEPES (methods give 20 mM TRIS pH 8.3, 20 mM NaClO4); 15 min preincubation
Field: numeric (nM). Do not append units.

Given the entry CCN1CCCC1CNC(=O)c1cc(S(N)(=O)=O)ccc1OC (centres unmarked) [SLP, Sulpiride] , report its measured Ki.
958

Look at this compound and give its reported Ki. NS(=O)(=O)c1nnc(NS(=O)(=O)c2ccccc2)s1 [BZA, benzolamide]
724

Which value of Ki has been reported for `NS(=O)(=O)NCCNc1nonc1/C(=N/O)Nc1ccc(F)c(Br)c1` in the records?
955

What Ki value was documented for this compound, NS(=O)(=O)Cc1noc2ccccc12 [ZNS, Zonisamide] ?
806

What value of Ki has been recorded for this entry: `NS(=O)(=O)c1ccc(S(=O)(=O)Nc2cccc3c(Cl)c[nH]c23)cc1`
638
